Cited source for all entries: ChEMBL document CHEMBL4184280

- procedure.summary: Metabolic stability in human liver microsomes assessed as parent compound remaining after 30 mins
- Type: ADME, microsome
- assay.setup: read-out: Stability
metric: remaining at 0.5 h
Answer shape: numeric part, then the unit.

Q) Please report the measured remaining at 0.5 h for `CNc1ccc(C(N)=O)cn1`
A) 85%

----------
- procedure.summary: AUC in C57Bl6/N mouse at 1 mg/kg, iv
- Format: ADME, organism-based
- assay.setup: in vivo
metric: AUC
Answer shape: numeric part, then the unit.

Q) Please report the measured AUC for `CNc1ccc(C(N)=O)cn1`
A) 511 ng·h/mL

----------
- procedure.summary: Metabolic stability in rat liver microsomes assessed as parent compound remaining after 30 mins
- Assay type: ADME, microsome
- assay.setup: read-out: Stability
metric: remaining at 0.5 h (%)
Numbers only, in %.

Q) Please report the measured remaining at 0.5 h for `CNc1ccc(C(N)=O)cn1`
A) 97
